molecular target: acid ceramidase (hACR) (Homo sapiens); construct: expressed in transfected cells; cell lysate used; experiment: Acid ceramidase inhibition, biochemical fluorescent assay with cell lysates overexpressing acid ceramidase, substrate Rbm14-12; details: cell lysates overexpressing acid ceramidase; 1 hr preincubation at RT; pH 4.5; substrate Rbm14-12 6.3 μM; read-out: hACR IC50
Sequence (Q13510 143-395 limits assumed): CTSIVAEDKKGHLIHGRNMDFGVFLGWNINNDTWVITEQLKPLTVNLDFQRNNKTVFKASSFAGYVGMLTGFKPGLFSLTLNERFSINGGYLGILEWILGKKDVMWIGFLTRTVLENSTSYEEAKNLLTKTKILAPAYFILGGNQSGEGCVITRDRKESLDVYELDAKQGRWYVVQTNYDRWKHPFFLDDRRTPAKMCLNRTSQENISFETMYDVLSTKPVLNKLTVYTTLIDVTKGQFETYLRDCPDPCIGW
Sequence (Q13510 22-142 limits assumed): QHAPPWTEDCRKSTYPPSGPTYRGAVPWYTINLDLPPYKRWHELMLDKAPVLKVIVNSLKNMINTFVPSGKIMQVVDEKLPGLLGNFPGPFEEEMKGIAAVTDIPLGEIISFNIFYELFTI
measured_endpoint: IC50

// worked examples, IC50 included
compound	measurement_target	IC50
CC1(C)CCc2c(C#N)cccc2N1C(=O)NCCc1ccccc1 [Example 47]	acid ceramidase (hACR) (Homo sapiens)	200 to 1000 nM
CC1(C)CCc2c(-c3ccccn3)cccc2N1C(=O)NCCc1ccccc1 [Example 5]	acid ceramidase (hACR) (Homo sapiens)	> 1000 nM
CCCCCNC(=O)N1CCC(c2ccccc2)CC1(C)C (stereo not shown) [Example 76]	acid ceramidase (hACR) (Homo sapiens)	> 1000 nM
CN1CCC(c2cccc3c2CN(C(=O)NCCc2ccccc2)C(C)(C)C3)CC1 [Example 20]	acid ceramidase (hACR) (Homo sapiens)	200 to 1000 nM
CN1CCC(c2ccc3c(c2)CCC(C)(C)N3C(=O)NCCc2ccccc2)CC1 [Example 23]	acid ceramidase (hACR) (Homo sapiens)	200 to 1000 nM

Shift focus to the following entry.
Prompt line: // IC50 lookup, key: CCCCNC(=O)N1CCC(OC2CCN(C)CC2)CC1(C)C (stereo not shown) [Example 39]
Response line: > 1000 nM

From: patent US20220380314A1
